System: Escherichia coli
run-description: Antibacterial activity against efflux-defective Escherichia coli N43 deficit of AcrAB-TolC assessed as inhibition of bacterial growth in presence of 4 ug/ml membrane-permeabilising agent, polymyxin B
Type: functional
measurement-label: MIC

1. NCc1ccc(Cn2c(C3CC3)cc3cc(C(N)=O)cnc32)cc1 : 1020 µg/mL
2. NC(=O)c1ccc(NC2(c3cccc(N4CCNCC4)c3)CC2)nc1 : > 1020 µg/mL
3. NC(=O)c1ccc(NCc2cccc(N3CCNCC3)c2)nc1 : > 1020 µg/mL
4. CC[C@H]1OC(=O)[C@H](C)[C@@H](O[C@H]2C[C@@](C)(OC)[C@@H](O)[C@H](C)O2)[C@H](C)[C@@H](O[C@@H]2O[C@H](C)C[C@H](N(C)C)[C@H]2O)[C@](C)(O)C[C@@H](C)C(=O)[C@H](C)[C@@H](O)[C@]1(C)O : 0.5 µg/mL
5. CC(C)(CNc1ccc(C(N)=O)cn1)c1cccc(N2CCNCC2)c1 : 1020 µg/mL
6. CC(C)(CNc1ccc(C(N)=O)cn1)c1cccc(NC2CNC2)c1 : > 1020 µg/mL
7. CN1CCN(C(=O)Cn2c(C3CC3)cc3cc(C(N)=O)cnc32)CC1 : > 512 µg/mL
8. CN(C(=O)Cn1c(C2CC2)cc2cc(C(N)=O)cnc21)[C@@H]1C[C@H]2CC[C@@H](C1)N2 : > 1020 µg/mL
9. CN1CCC(N(C)C(=O)Cn2c(C3CC3)cc3cc(C(N)=O)cnc32)CC1 : > 1020 µg/mL
10. NC(=O)c1cnc2c(c1)cc(C1CC1)n2CC(=O)N1CCNCC1 : > 1020 µg/mL
11. CC(C)(CNc1ccc(C(N)=O)cn1)c1ccccc1 : 256 µg/mL
12. CC(C)[C@H]1CN(C(=O)Cn2c(C3CC3)cc3cc(C(N)=O)cnc32)CCN1 : > 1020 µg/mL
13. NC(=O)c1cnc2c(c1)cc(C1CC1)n2CC(=O)N1CCNC(=O)C1 : > 1020 µg/mL
14. CC(C)(CNc1ccc(C(N)=O)cn1)c1cccc(CN)c1 : > 1020 µg/mL
15. CN(C(=O)Cn1c(C2CC2)cc2cc(C(N)=O)cnc21)C1CCNCC1 : > 512 µg/mL

====

Entries and their logD values follow.
run-description: Lipophilicity, logD of the compound at pH 7.4
Format: physicochemical
assay-context: buffer
measurement-label: logD

1. NC(=O)c1ccc(NCc2cccc(N3CCNCC3)c2)nc1 : 1
2. CC(C)(CNc1ccc(C(N)=O)cn1)c1cccc(NC2CNC2)c1 : 1
3. CN1CCN(C(=O)Cn2c(C3CC3)cc3cc(C(N)=O)cnc32)CC1 : 2.7
4. NC(=O)c1cnc2c(c1)cc(C1CC1)n2CC(=O)N1CCNCC1 : -0.1
5. NCc1ccc(Cn2c(C3CC3)cc3cc(C(N)=O)cnc32)cc1 : 1.4
6. CN(C(=O)Cn1c(C2CC2)cc2cc(C(N)=O)cnc21)C1CCNCC1 : -0.2

====

Entries and their pKd values follow.
assayed-system: tRNA (guanine-N(1)-)-methyltransferase (Escherichia coli (strain K12), UniProt P0A873)
Sequence (P0A873 whole entry): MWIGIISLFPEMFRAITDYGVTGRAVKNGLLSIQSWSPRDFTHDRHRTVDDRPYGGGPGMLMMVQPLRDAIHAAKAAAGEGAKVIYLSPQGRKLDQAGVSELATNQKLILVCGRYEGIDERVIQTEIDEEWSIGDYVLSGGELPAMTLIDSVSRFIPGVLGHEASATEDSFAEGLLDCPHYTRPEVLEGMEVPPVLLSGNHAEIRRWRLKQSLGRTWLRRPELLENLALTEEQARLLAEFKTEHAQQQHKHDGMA
run-description: Binding affinity to Escherichia coli TrmD by surface plasmon resonance assay
pKd: −log10 of the molar value.
measurement-label: pKd

1. NC(=O)c1ccc2nc(N)sc2c1 : 3.38
2. OCc1cc(-c2cccs2)[nH]n1 : 3.59
3. NC(=O)c1ccc(N)nc1 [6-AMINONICOTINAMIDE] : 5.89
